system: Daudi Cell Culture; test: Compound primary screening in Daudi cell culture; assay type: cell-based; conditions: Homo sapiens, 168 h; Daudi cells, 1250 cells per well, reads on Day 7
pEC50: −log10 of the molar value.
# pEC50 per entry

CC(C)NC(=S)Nc1ccc(-c2ncc(-c3ccc(NC(=O)OC(C)c4ccccc4)cc3S(=O)(=O)NC(C)(C)C)s2)cc1 (stereo not shown)	> 5.00
CC(=O)Nc1ccc(-c2cnc(-c3ccc(NS(C)(=O)=O)cc3)s2)c(S(=O)(=O)NC(C)(C)C)c1	< 5.00
CCC(=O)Nc1ccc(-c2cnc(-c3ccc(NC(=O)OC(C)C)cc3)s2)c(S(=O)(=O)NC(C)(C)C)c1	> 6.00

Continue with the next molecule.
Form field - read-out: pEC50; system: Daudi Cell Culture; submitted item: CC(C)OC(=O)Nc1ccc(-c2ncc(-c3ccc(NC(=O)OCCO)cc3S(=O)(=O)NC(C)(C)C)s2)cc1
> 5.30
